The reported measurements were obtained from patent US20170081347A1.

assay: LogD; type: physicochemical
Item-by-item account of logD

[
  {
    "SMILES ENTRY": "CC(C)[C@@H](CN1CCN(c2cccc(O)c2)[C@@H](C)C1)NC(=O)c1ccc(B2C=CCCN2)cc1",
    "logD": 4.9
  },
  {
    "SMILES ENTRY": "O=C(NCCS(=O)(=O)c1ccc(C(F)(F)F)cn1)c1ccc(-c2ccccc2)cc1",
    "logD": 3.5
  },
  {
    "SMILES ENTRY": "Cl.O=C(Cc1ccc(-c2ccccc2)cc1)Nc1cc(C2CC2)n[nH]1",
    "logD": 4.2
  },
  {
    "SMILES ENTRY": "O=C(NCCS(=O)(=O)c1ccc(C(F)(F)F)cn1)c1ccc(B2C=CCCN2)cc1",
    "logD": 3.5
  }
]

---

test: Solubility pH = 6.8; format: physicochemical; conditions: aqueous buffer
Item-by-item account of solubility
PARAMETER MEASURED: solubility

[
  {
    "COMPOUND": "CC(C)[C@@H](CN1CCN(c2cccc(O)c2)[C@@H](C)C1)NC(=O)c1ccc(B2C=CCCN2)cc1",
    "PARAMETER MEASURED": "solubility",
    "VAL": "26 µM"
  },
  {
    "COMPOUND": "O=C(NC1CCN(Cc2ccccc2)C1)c1ccc(B2C=CC=CN2)cc1 (stereo not drawn)",
    "PARAMETER MEASURED": "solubility",
    "VAL": "> 30 µM"
  },
  {
    "COMPOUND": "O=C(NCCS(=O)(=O)c1ccc(C(F)(F)F)cn1)c1ccc(B2C=CCCN2)cc1",
    "PARAMETER MEASURED": "solubility",
    "VAL": "< 4 µM"
  }
]

---

assay: Solubility FASSIF (fasted state simulated intestinal fluid); format: physicochemical
PARAMETER MEASURED: solubility (µM)

[
  {
    "SMILES ENTRY": "CC(C)[C@@H](CN1CCN(c2cccc(O)c2)[C@@H](C)C1)NC(=O)c1ccc(-c2ccccc2)cc1",
    "PARAMETER MEASURED": "solubility",
    "VAL": 349
  },
  {
    "SMILES ENTRY": "O=C(NCCS(=O)(=O)c1ccc(C(F)(F)F)cn1)c1ccc(B2C=CCCN2)cc1",
    "PARAMETER MEASURED": "solubility",
    "VAL": 6
  },
  {
    "SMILES ENTRY": "COc1ccccc1N1CCN(CCCCNC(=O)c2ccc(-c3ccccc3)cc2)CC1",
    "PARAMETER MEASURED": "solubility",
    "VAL": 21
  }
]

---

molecular target: Opioid δ (Homo sapiens)
Sequence (P41143 whole entry): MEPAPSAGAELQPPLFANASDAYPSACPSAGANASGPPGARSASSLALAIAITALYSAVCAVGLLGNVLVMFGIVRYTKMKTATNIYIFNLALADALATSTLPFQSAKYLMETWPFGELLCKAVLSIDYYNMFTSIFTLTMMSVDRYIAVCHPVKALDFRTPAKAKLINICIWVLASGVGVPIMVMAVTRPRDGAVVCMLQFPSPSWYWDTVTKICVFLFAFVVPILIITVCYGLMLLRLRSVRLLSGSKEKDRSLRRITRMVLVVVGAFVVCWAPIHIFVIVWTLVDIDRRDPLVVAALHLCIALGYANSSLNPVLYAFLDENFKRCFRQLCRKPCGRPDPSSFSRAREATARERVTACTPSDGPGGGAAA
pIC50: −log10 of the molar value.
PARAMETER MEASURED: pIC50

[
  {
    "SMILES ENTRY": "CC(C)[C@@H](CN1CCN(c2cccc(O)c2)[C@@H](C)C1)NC(=O)c1ccc(-c2ccccc2)cc1",
    "PARAMETER MEASURED": "pIC50",
    "VAL": "< 4.52"
  }
]

---

Item-by-item account of logD
assay: LogD; type: physicochemical

[
  {
    "COMPOUND": "COc1ccccc1N1CCN(CCCCNC(=O)c2ccc(-c3ccccc3)cc2)CC1",
    "OPERATOR": "=",
    "logD": 4.2
  },
  {
    "COMPOUND": "O=C(NC1CCN(Cc2ccccc2)C1)c1ccc(-c2ccccc2)cc1 (stereo not shown)",
    "OPERATOR": "=",
    "logD": 4.4
  },
  {
    "COMPOUND": "COc1ccc2[nH]cc(CCNC(=O)c3ccc(B4C=CC=CN4)cc3)c2c1",
    "OPERATOR": "=",
    "logD": 5
  },
  {
    "COMPOUND": "COc1ccc2[nH]cc(CCNC(=O)c3ccc(-c4ccccc4)cc3)c2c1",
    "OPERATOR": ">",
    "logD": 5
  },
  {
    "COMPOUND": "COc1ccccc1N1CCN(CCCCNC(=O)c2ccc(B3C=CC=CN3)cc2)CC1",
    "OPERATOR": "=",
    "logD": 4.1
  },
  {
    "COMPOUND": "CN(CCc1c[nH]c2ccccc12)C(=O)c1ccc(B2C=CC=CN2)cc1",
    "OPERATOR": "=",
    "logD": 4.6
  },
  {
    "COMPOUND": "CC(C)[C@@H](CN1CCN(c2cccc(O)c2)[C@@H](C)C1)NC(=O)c1ccc(-c2ccccc2)cc1",
    "OPERATOR": "=",
    "logD": 5.2
  },
  {
    "COMPOUND": "CN(CCc1c[nH]c2ccccc12)C(=O)c1ccc(-c2ccccc2)cc1",
    "OPERATOR": ">",
    "logD": 5
  },
  {
    "COMPOUND": "O=C(NCc1ccncc1)c1ccc(B2C=CC=CN2)cc1",
    "OPERATOR": "=",
    "logD": 3.2
  },
  {
    "COMPOUND": "O=C(NC1CCN(Cc2ccccc2)C1)c1ccc(B2C=CC=CN2)cc1 (stereo not shown)",
    "OPERATOR": "=",
    "logD": 4.1
  }
]
